# Tested on: Plasmodium berghei
# ASSAY_DETAILS: Antimalarial activity against Plasmodium berghei str. ANKA infected in Swiss albino mouse assessed as parasitemia at 0.048 mmol/kg/day, po qd […] by microscopic analysis relative to control
# Format: functional
OBSERVED_PROPERTY: Activity (%)

> print(dat)
                                   compound  measured.result
1  Cc1ccc(-c2nn(-c3ccc(C)cc3)cc2/C=N/NC(=S)Nc2ccccc2)cc1               34
2  CC(=O)N(C1=NN(C(C)=O)C(c2cn(-c3ccc(Br)cc3)nc2-c2ccc(C)cc2)S1)c1ccccc1 (stereo not drawn)               12
3  O=[N+]([O-])c1ccc(-c2nn(-c3ccc(Br)cc3)cc2/C=N/N=c2/scc(-c3ccc(Br)cc3)n2-c2ccccc2)cc1               28
4  Cc1ccc(-n2cc(/C=N/N=c3/scc(-c4ccc(Br)cc4)n3-c3ccccc3)c(-c3ccc([N+](=O)[O-])cc3)n2)cc1               22
5  Cc1ccc(-n2cc(/C=N/NC(=S)Nc3ccccc3)c(-c3ccc([N+](=O)[O-])cc3)n2)cc1                5
6  O=[N+]([O-])c1ccc(-c2nn(-c3ccc(Br)cc3)cc2C2CC(c3ccccc3)=NN2c2ccccc2)cc1 (stereo not drawn)               32
7  O=[N+]([O-])c1ccc(-c2nn(-c3ccc(Br)cc3)cc2/C=N/NC(=S)Nc2ccccc2)cc1                5
8  CCC(=O)N1N=C(c2ccccc2)CC1c1cn(-c2ccc(C)cc2)nc1-c1ccc(C)cc1 (stereo not drawn)               38

###

# Test system: Plasmodium berghei
# ASSAY_DETAILS: Antimalarial activity against Plasmodium berghei str. ANKA infected in Swiss albino mouse assessed as supression of parasitemia at 0.048 mmol/kg/day, po qd for 3 days by microscopic analysis relative to control
# Format: functional
OBSERVED_PROPERTY: Activity (%)

> print(dat)
                                    compound  measurement.target  observed.property  measured.result
 1  O=Cc1cn(-c2ccc(Br)cc2)nc1-c1ccc([N+](=O)[O-])cc1  Plasmodium berghei           Activity             59.3
 2  CCC(=O)N1N=C(c2ccccc2)CC1c1cn(-c2ccc(Br)cc2)nc1-c1ccc(C)cc1 (centres undefined)  Plasmodium berghei           Activity            51.16
 3  CCN(CC)CCCC(C)Nc1ccnc2cc(Cl)ccc12.O=P(O)(O)O.O=P(O)(O)O (centres undefined) [CHLOROQUINE PHOSPHATE]  Plasmodium berghei           Activity              100
 4  O=[N+]([O-])c1ccc(-c2nn(-c3ccc(Br)cc3)cc2/C=N/N=c2/scc(-c3ccc(Br)cc3)n2-c2ccccc2)cc1  Plasmodium berghei           Activity            67.44
 5  O=[N+]([O-])c1ccc(-c2nn(-c3ccc(Br)cc3)cc2/C=N/NC(=S)Nc2ccccc2)cc1  Plasmodium berghei           Activity            94.19
 6  Cc1ccc(-c2nn(-c3ccc(Br)cc3)cc2/C=N/N=C2/SCC(=O)N2c2ccccc2)cc1  Plasmodium berghei           Activity            95.35
 7  O=[N+]([O-])c1ccc(-c2nn(-c3ccc(Br)cc3)cc2C2CC(c3ccccc3)=NN2c2ccccc2)cc1 (centres undefined)  Plasmodium berghei           Activity            62.79
 8  Cc1ccc(-c2nn(-c3ccc(Br)cc3)cc2C2CC(c3ccccc3)=NN2c2ccccc2)cc1 (centres undefined)  Plasmodium berghei           Activity            74.42
 9  Cc1ccc(-c2nn(-c3ccc(C)cc3)cc2/C=C/C(=O)c2ccccc2)cc1  Plasmodium berghei           Activity            69.77
10  Cc1ccc(-c2nn(-c3ccc(C)cc3)cc2/C=N/NC(=S)Nc2ccccc2)cc1  Plasmodium berghei           Activity            60.47
11     Cc1ccc(-c2nn(-c3ccc(Br)cc3)cc2C=O)cc1  Plasmodium berghei           Activity            65.11
12  CCC(=O)N1N=C(c2ccccc2)CC1c1cn(-c2ccc(C)cc2)nc1-c1ccc(C)cc1 (centres undefined)  Plasmodium berghei           Activity            55.81
13  Cc1ccc(-c2nn(-c3ccc(Br)cc3)cc2/C=N/NC(=S)Nc2ccccc2)cc1  Plasmodium berghei           Activity            65.12
14      Cc1ccc(-c2nn(-c3ccc(C)cc3)cc2C=O)cc1  Plasmodium berghei           Activity            61.62

###

# Tested on: Mus musculus
# ASSAY_DETAILS: Toxicity in mouse up to 100 mg/kg administered via parenteral route
# Type: organism-based
# Design: dose 100 mg/kg
# CONDITION_NOTES: in vivo
OBSERVED_PROPERTY: Activity

> print(dat)
                                   compound  measurement.target  observed.property  measured.result
1  O=C1CS/C(=N/N=C/c2cn(-c3ccc(Br)cc3)nc2-c2ccc([N+](=O)[O-])cc2)N1c1ccccc1        Mus musculus           Activity        Non-toxic
2  O=C(/C=C/c1cn(-c2ccc(Br)cc2)nc1-c1ccc([N+](=O)[O-])cc1)c1ccccc1        Mus musculus           Activity        Non-toxic
3  CC(=O)N(C1=NN(C(C)=O)C(c2cn(-c3ccc(Br)cc3)nc2-c2ccc([N+](=O)[O-])cc2)S1)c1ccccc1 (stereo not drawn)        Mus musculus           Activity        Non-toxic

###

# System: Plasmodium berghei
# ASSAY_DETAILS: Antimalarial activity against Plasmodium berghei str. ANKA infected in Swiss albino mouse assessed as parasitemia at 0.048 mmol/kg/day, po qd […] by microscopic analysis relative to control
# Type: functional
OBSERVED_PROPERTY: Activity (%)

> print(dat)
                                   compound  unit  measured.result
1  Cc1ccc(-c2nn(-c3ccc(C)cc3)cc2C2CC(c3ccccc3)=NN2)cc1 (centres undefined)     %               30
2     Cc1ccc(-c2nn(-c3ccc(Br)cc3)cc2C=O)cc1     %               30
3  Cc1ccc(-c2nn(-c3ccc(Br)cc3)cc2/C=N/NC(=S)Nc2ccccc2)cc1     %               30
4  Cc1ccc(-c2nn(-c3ccc(C)cc3)cc2/C=N/N=C2/SCC(=O)N2c2ccccc2)cc1     %               10
